protocol.summary: in vivo;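 also: radiolabelled ligand targeting bombesin receptors, given by intravenous injection at varied injected mass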
particulars: rat, stomach, 0.5 ug, total radioactivity
measured.attribute: tissue uptake at 48 h
# include the unit after the value

Query: What value of tissue uptake at 48 h has been recorded for this entry: CSCC[C@H](NC(=O)[C@H](CC(C)C)NC(=O)[C@H](Cc1c[nH]cn1)NC(=O)CNC(=O)[C@@H](NC(=O)[C@H](C)NC(=O)[C@H](Cc1c[nH]c2ccccc12)NC(=O)[C@H](CCC(N)=O)NC(=O)[C@H](CC(N)=O)NC(=O)CNC(=O)[C@H](Cc1ccc(O)cc1)NC(=O)[C@H](CCCNC(=N)N)NC(=O)[C@H](CCC(N)=O)NC(=O)[C@@H]1CCCN1C(=O)CN(CCN(CCN(CC(=O)O)CC(=O)O)CC(=O)O)CC(=O)O)C(C)C)C(N)=O [[^111In-DTPA^0, Pro^1, Tyr^4] bombesin, metal not drawn]
Result: 0.036 %ID/g

----------
protocol.summary: in vivo
particulars: rat, pancreas, 0.025 ug, total radioactivity
measured.attribute: tissue uptake at 48 h (%ID/g)
I only need the number, in %ID/g, no unit after it.

Query: What value of tissue uptake at 48 h has been recorded for this entry: CSCC[C@H](NC(=O)[C@H](CC(C)C)NC(=O)[C@H](Cc1c[nH]cn1)NC(=O)CNC(=O)[C@@H](NC(=O)[C@H](C)NC(=O)[C@H](Cc1c[nH]c2ccccc12)NC(=O)[C@H](CCC(N)=O)NC(=O)[C@H](CC(N)=O)NC(=O)CNC(=O)[C@H](Cc1ccc(O)cc1)NC(=O)[C@H](CCCNC(=N)N)NC(=O)[C@H](CCC(N)=O)NC(=O)[C@@H]1CCCN1C(=O)CN(CCN(CCN(CC(=O)O)CC(=O)O)CC(=O)O)CC(=O)O)C(C)C)C(N)=O [[^111In-DTPA^0, Pro^1, Tyr^4] bombesin, metal not drawn]
Result: 1.2

----------
protocol.summary: in vivo
particulars: rat, adrenal, 0.1 ug, total radioactivity
measured.attribute: tissue uptake at 48 h (%ID/g)
I only need the number, in %ID/g, no unit after it.

Query: What value of tissue uptake at 48 h has been recorded for this entry: CSCC[C@H](NC(=O)[C@H](CC(C)C)NC(=O)[C@H](Cc1c[nH]cn1)NC(=O)CNC(=O)[C@@H](NC(=O)[C@H](C)NC(=O)[C@H](Cc1c[nH]c2ccccc12)NC(=O)[C@H](CCC(N)=O)NC(=O)[C@H](CC(N)=O)NC(=O)CNC(=O)[C@H](Cc1ccc(O)cc1)NC(=O)[C@H](CCCNC(=N)N)NC(=O)[C@H](CCC(N)=O)NC(=O)[C@@H]1CCCN1C(=O)CN(CCN(CCN(CC(=O)O)CC(=O)O)CC(=O)O)CC(=O)O)C(C)C)C(N)=O [[^111In-DTPA^0, Pro^1, Tyr^4] bombesin, metal not drawn]
Result: 0.022

----------
protocol.summary: in vivo
particulars: rat, pancreas, 0.5 ug, total radioactivity
measured.attribute: tissue uptake at 48 h (%ID/g)
I only need the number, in %ID/g, no unit after it.

Query: What value of tissue uptake at 48 h has been recorded for this entry: CSCC[C@H](NC(=O)[C@H](CC(C)C)NC(=O)[C@H](Cc1c[nH]cn1)NC(=O)CNC(=O)[C@@H](NC(=O)[C@H](C)NC(=O)[C@H](Cc1c[nH]c2ccccc12)NC(=O)[C@H](CCC(N)=O)NC(=O)[C@H](CC(N)=O)NC(=O)CNC(=O)[C@H](Cc1ccc(O)cc1)NC(=O)[C@H](CCCNC(=N)N)NC(=O)[C@H](CCC(N)=O)NC(=O)[C@@H]1CCCN1C(=O)CN(CCN(CCN(CC(=O)O)CC(=O)O)CC(=O)O)CC(=O)O)C(C)C)C(N)=O [[^111In-DTPA^0, Pro^1, Tyr^4] bombesin, metal not drawn]
Result: 0.43
